Entries and their Injected dose/g
Species: Rattus norvegicus
Assay: Tissue biodistribution into estrogen-primed immature female rat muscle at 1 hr time interval
Assay type: ADME, organism-based
Conditions: in vivo
Numeric answer only, unit % assumed.

C[C@@]1(c2ccc(F)cc2)O[C@@H]2CC3C4CCC5=CC(=O)CC[C@@H]5C4CC[C@]3(C)[C@]2(C(=O)CO)O1 (stereo not given in full)
0.44
CC1(c2ccco2)O[C@@H]2CC3C4CCC5=CC(=O)CC[C@@H]5C4CC[C@]3(C)[C@]2(C(=O)CF)O1 (stereo not given in full)
0.64

Identify Injected dose/g associated with the compound C[C@]12CCC3C(CCC4=CC(=O)CC[C@@H]43)C1C[C@H]1OC(c3ccco3)O[C@]12C(=O)CF (stereo not given in full)
0.59

Identify Injected dose/g associated with the compound CC[C@@H]1C[C@H]2[C@@H]3CCC4=CC(=O)CC[C@@H]4[C@H]3CC[C@]2(C)[C@H]1C(=O)CF
0.42

Identify Injected dose/g associated with the compound CC(=O)[C@@]12O[C@](C)(c3ccc(F)cc3)O[C@@H]1CC1C3CCC4=CC(=O)CC[C@]4(C)C3CC[C@@]12C (stereo not given in full)
0.82

* * *

Biological target: UniProt P06401
Sequence (P06401 whole entry): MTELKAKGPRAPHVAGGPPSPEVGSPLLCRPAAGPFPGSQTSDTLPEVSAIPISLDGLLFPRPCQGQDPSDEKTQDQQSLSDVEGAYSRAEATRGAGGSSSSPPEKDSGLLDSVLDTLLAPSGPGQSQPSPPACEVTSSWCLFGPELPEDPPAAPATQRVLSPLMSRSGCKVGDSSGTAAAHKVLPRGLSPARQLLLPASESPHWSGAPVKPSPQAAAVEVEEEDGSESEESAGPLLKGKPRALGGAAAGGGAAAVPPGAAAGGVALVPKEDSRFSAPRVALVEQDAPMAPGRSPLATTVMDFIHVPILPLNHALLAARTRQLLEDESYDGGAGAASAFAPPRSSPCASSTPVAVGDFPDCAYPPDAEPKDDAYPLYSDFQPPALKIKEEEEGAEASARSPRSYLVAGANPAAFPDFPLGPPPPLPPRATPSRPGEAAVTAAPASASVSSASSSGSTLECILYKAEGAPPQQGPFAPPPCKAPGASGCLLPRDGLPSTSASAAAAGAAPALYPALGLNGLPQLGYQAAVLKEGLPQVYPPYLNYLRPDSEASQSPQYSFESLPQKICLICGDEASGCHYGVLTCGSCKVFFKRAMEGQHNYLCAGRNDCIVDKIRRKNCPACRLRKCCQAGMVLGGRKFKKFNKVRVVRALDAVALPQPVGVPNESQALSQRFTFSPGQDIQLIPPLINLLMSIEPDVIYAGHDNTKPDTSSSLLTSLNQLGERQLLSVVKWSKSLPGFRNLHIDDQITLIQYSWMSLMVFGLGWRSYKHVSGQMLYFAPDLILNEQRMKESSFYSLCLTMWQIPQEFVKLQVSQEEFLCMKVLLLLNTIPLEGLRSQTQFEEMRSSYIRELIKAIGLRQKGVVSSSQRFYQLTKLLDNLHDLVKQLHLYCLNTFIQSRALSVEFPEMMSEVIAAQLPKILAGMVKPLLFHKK
Test: Binding selectivity index as the ratio of RBA value to that of NSB value.
QUANTITY_NAME: BSI
Please state the value as a number alone, without comment.

Consider the reported BSI for these molecules:
CC(=O)[C@H]1CC[C@H]2[C@@H]3CCC4=CC(=O)CC[C@]4(C)[C@H]3CC[C@]12C
16
CC(=O)[C@@]12O[C@](C)(c3ccc(F)cc3)O[C@@H]1CC1C3CCC4=CC(=O)CC[C@]4(C)C3CC[C@@]12C (stereo partly drawn)
10
CCC(=O)[C@@]1(C)CC[C@H]2[C@@H]3CCC4=CC(=O)CCC4=C3CC[C@@]21C
100
CC1(c2ccc(F)cc2)O[C@@H]2CC3C4CCC5=CC(=O)CC[C@@H]5C4CC[C@]3(C)[C@]2(C(=O)CF)O1 (stereo partly drawn)
65
CC[C@@H]1C[C@H]2[C@@H]3CCC4=CC(=O)CC[C@@H]4[C@H]3CC[C@]2(C)[C@H]1C(=O)CF
374

Identify BSI associated with the molecule CC1(c2ccco2)O[C@@H]2CC3C4CCC5=CC(=O)CC[C@@H]5C4CC[C@]3(C)[C@]2(C(=O)CF)O1 (stereo partly drawn)
159

Identify BSI associated with the molecule C[C@@]1(c2ccc(F)cc2)O[C@@H]2CC3C4CCC5=CC(=O)CC[C@@H]5C4CC[C@]3(C)[C@]2(C(=O)CO)O1 (stereo partly drawn)
98

Identify BSI associated with the molecule CC[C@@H]1C[C@H]2[C@@H]3CCC4=CC(=O)CC[C@@H]4[C@H]3CC[C@]2(C)[C@H]1C(=O)CO
206

* * *

Species: Rattus norvegicus
Assay: Tissue biodistribution into estrogen-primed immature female rat brain at 1 hr time interval
Assay type: ADME, organism-based
Settings: in vivo
Entries and their Injected dose/g
Numeric answer only, unit % assumed.

Consider the reported Injected dose/g for these compounds:
CC1(c2ccco2)O[C@@H]2CC3C4CCC5=CC(=O)CC[C@@H]5C4CC[C@]3(C)[C@]2(C(=O)CF)O1 (stereo not given in full)
0.58
CC(=O)[C@@]12O[C@](C)(c3ccc(F)cc3)O[C@@H]1CC1C3CCC4=CC(=O)CC[C@]4(C)C3CC[C@@]12C (stereo not given in full)
0.56
C[C@@]1(c2ccc(F)cc2)O[C@@H]2CC3C4CCC5=CC(=O)CC[C@@H]5C4CC[C@]3(C)[C@]2(C(=O)CO)O1 (stereo not given in full)
0.34
C[C@]12CCC3C(CCC4=CC(=O)CC[C@@H]43)C1C[C@H]1OC(c3ccco3)O[C@]12C(=O)CF (stereo not given in full)
0.57

Let us move to another entry and its Injected dose/g.
Identify Injected dose/g associated with the compound CC[C@@H]1C[C@H]2[C@@H]3CCC4=CC(=O)CC[C@@H]4[C@H]3CC[C@]2(C)[C@H]1C(=O)CF
0.63

* * *

Organism: Rattus norvegicus
Test: Tissue biodistribution into estrogen-primed immature female rat bone at 1 hr time interval
Type: ADME, organism-based, Bone element
Settings: in vivo
Entries and their Injected dose/g
Numeric answer only, unit % assumed.

Consider the reported Injected dose/g for these molecules:
CC(=O)[C@@]12O[C@](C)(c3ccc(F)cc3)O[C@@H]1CC1C3CCC4=CC(=O)CC[C@]4(C)C3CC[C@@]12C (stereo not given in full)
1.76
CC[C@@H]1C[C@H]2[C@@H]3CCC4=CC(=O)CC[C@@H]4[C@H]3CC[C@]2(C)[C@H]1C(=O)CF
3.18
C[C@@]1(c2ccc(F)cc2)O[C@@H]2CC3C4CCC5=CC(=O)CC[C@@H]5C4CC[C@]3(C)[C@]2(C(=O)CO)O1 (stereo not given in full)
0.62
CC1(c2ccco2)O[C@@H]2CC3C4CCC5=CC(=O)CC[C@@H]5C4CC[C@]3(C)[C@]2(C(=O)CF)O1 (stereo not given in full)
1.15

Let us move to another entry and its Injected dose/g.
Identify Injected dose/g associated with the molecule C[C@]12CCC3C(CCC4=CC(=O)CC[C@@H]43)C1C[C@H]1OC(c3ccco3)O[C@]12C(=O)CF (stereo not given in full)
1.11

* * *

Assay: Partition coefficient (logP)
Assay type: physicochemical
Settings: octanol/water; read-out: logP
Entries and their logP
Please state the value as a number alone, without comment.

CC(=O)[C@@]12OC(C)(c3ccco3)O[C@@H]1CC1C3CCC4=CC(=O)CC[C@]4(C)C3CC[C@@]12C (some centres not stated)
4.76
C[C@]12CCC3C(CCC4=CC(=O)CC[C@@H]43)C1C[C@H]1OC(c3ccco3)O[C@]12C(=O)CO (some centres not stated)
4.01
CC1(c2ccco2)O[C@@H]2CC3C4CCC5=CC(=O)CC[C@@H]5C4CC[C@]3(C)[C@]2(C(=O)CO)O1 (some centres not stated)
4.23
CC1(c2ccc(F)cc2)O[C@@H]2CC3C4CCC5=CC(=O)CC[C@@H]5C4CC[C@]3(C)[C@]2(C(=O)CF)O1 (some centres not stated)
5.48
CC(=O)[C@@]12OC(c3ccco3)O[C@@H]1CC1C3CCC4=CC(=O)CC[C@]4(C)C3CC[C@@]12C (some centres not stated)
4.56
C[C@]12CCC3C(CCC4=CC(=O)CC[C@@H]43)C1C[C@H]1OC(c3ccco3)O[C@]12C(=O)CF (some centres not stated)
3.87

Let us move to another entry and its logP.
Identify logP associated with the compound CC1(c2ccco2)O[C@@H]2CC3C4CCC5=CC(=O)CC[C@@H]5C4CC[C@]3(C)[C@]2(C(=O)CF)O1 (some centres not stated)
4.13

* * *

Organism: Rattus norvegicus
Assay: Tissue biodistribution into estrogen-primed immature female rat uterus/blood at 1 hr time interval
Type: ADME, organism-based
Details: in vivo
Entries and their Uterus to blood concentration ratio
Numeric answer only, unit % assumed.

Consider the reported Uterus to blood concentration ratio for these compounds:
C[C@]12CCC3C(CCC4=CC(=O)CC[C@@H]43)C1C[C@H]1OC(c3ccco3)O[C@]12C(=O)CF (stereo not given in full)
18.18
CC[C@@H]1C[C@H]2[C@@H]3CCC4=CC(=O)CC[C@@H]4[C@H]3CC[C@]2(C)[C@H]1C(=O)CF
26.26
C[C@@]1(c2ccc(F)cc2)O[C@@H]2CC3C4CCC5=CC(=O)CC[C@@H]5C4CC[C@]3(C)[C@]2(C(=O)CO)O1 (stereo not given in full)
14
CC1(c2ccco2)O[C@@H]2CC3C4CCC5=CC(=O)CC[C@@H]5C4CC[C@]3(C)[C@]2(C(=O)CF)O1 (stereo not given in full)
20.09

Let us move to another entry and its Uterus to blood concentration ratio.
Identify Uterus to blood concentration ratio associated with the compound CC(=O)[C@@]12O[C@](C)(c3ccc(F)cc3)O[C@@H]1CC1C3CCC4=CC(=O)CC[C@]4(C)C3CC[C@@]12C (stereo not given in full)
6.59

* * *

Entries and their Injected dose/g
Species on record: Rattus norvegicus
Assay: Tissue biodistribution into estrogen-primed immature female rat fat at 1 hr time interval
Assay type: ADME, organism-based, Adipose tissue
Conditions: in vivo

Consider the reported Injected dose/g for these compounds:
C[C@]12CCC3C(CCC4=CC(=O)CC[C@@H]43)C1C[C@H]1OC(c3ccco3)O[C@]12C(=O)CF (stereo not given in full)
2.16%
CC(=O)[C@@]12O[C@](C)(c3ccc(F)cc3)O[C@@H]1CC1C3CCC4=CC(=O)CC[C@]4(C)C3CC[C@@]12C (stereo not given in full)
5.76%
C[C@@]1(c2ccc(F)cc2)O[C@@H]2CC3C4CCC5=CC(=O)CC[C@@H]5C4CC[C@]3(C)[C@]2(C(=O)CO)O1 (stereo not given in full)
3.53%
CC[C@@H]1C[C@H]2[C@@H]3CCC4=CC(=O)CC[C@@H]4[C@H]3CC[C@]2(C)[C@H]1C(=O)CF
3.56%

Let us move to another entry and its Injected dose/g.
Identify Injected dose/g associated with the compound CC1(c2ccco2)O[C@@H]2CC3C4CCC5=CC(=O)CC[C@@H]5C4CC[C@]3(C)[C@]2(C(=O)CF)O1 (stereo not given in full)
2.86%
